TESTED SYSTEM: hAR (human androgen receptor) (Homo sapiens, UniProt P10275)
Construct: made in house; host or cells: baculovirus/Sf9 insect cells (crude extract)
EXPERIMENTAL DETAILS: Competitive hAR binding assay with 3H-DHT tracer
CONDITION NOTES: baculovirus/Sf9 hAR extract, 1 nM 3H-DHT, one hour at 4° C; mean of multiple tests; read-out: AR Binding IC50
Quick reference: pIC50 of the listed items.
Remember, pIC50 is on a log scale: it is -log10 of the molar concentration.

// known answers, use as guide
Cc1ccc(-c2ccc(Oc3ccc(C#N)c(Cl)c3)c(C)c2)cc1 [Example 58]
6.36
N#Cc1ccc(Oc2cccc3ccccc23)c(Cl)c1 [Example 72]
6.32
COc1cc(C(C)=O)ccc1Oc1ccc(C#N)c(C(F)(F)F)c1 [Example 74]
5.83
COc1cccc(OC)c1Oc1ccc(C#N)cc1Cl [Example 26]
6.97

Consider N#Cc1ccc(Oc2ccccc2-c2ccccc2)cc1Cl [Example 69] . Its measured pIC50 is 6.80

Consider COc1ccc(Oc2ccc(C#N)c(C(F)(F)F)c2)c(C(C)=O)c1 [Example 90] . Its measured pIC50 is 6.69

Consider Cc1ccc(C)c(Oc2ccc(C#N)cc2Cl)c1 [Example 9] . Its measured pIC50 is 6.45

Consider N#Cc1ccc(Oc2ccc3c(c2)CCC3)cc1Cl [Example 43, 2-Chloro-4-(indan-5-yloxy)-benzonitrile] . Its measured pIC50 is 6.36

Consider N#Cc1ccc(Oc2ccc(C#N)c(C(F)(F)F)c2)cc1C#N [Example 100] . Its measured pIC50 is 6.76

###

Quick reference: IC50 of the listed items.
TESTED SYSTEM: hAR (human androgen receptor) (Homo sapiens, UniProt P10275)
Construct: made in house; host or cells: baculovirus/Sf9 insect cells (crude extract)
Sequence (P10275 1-920): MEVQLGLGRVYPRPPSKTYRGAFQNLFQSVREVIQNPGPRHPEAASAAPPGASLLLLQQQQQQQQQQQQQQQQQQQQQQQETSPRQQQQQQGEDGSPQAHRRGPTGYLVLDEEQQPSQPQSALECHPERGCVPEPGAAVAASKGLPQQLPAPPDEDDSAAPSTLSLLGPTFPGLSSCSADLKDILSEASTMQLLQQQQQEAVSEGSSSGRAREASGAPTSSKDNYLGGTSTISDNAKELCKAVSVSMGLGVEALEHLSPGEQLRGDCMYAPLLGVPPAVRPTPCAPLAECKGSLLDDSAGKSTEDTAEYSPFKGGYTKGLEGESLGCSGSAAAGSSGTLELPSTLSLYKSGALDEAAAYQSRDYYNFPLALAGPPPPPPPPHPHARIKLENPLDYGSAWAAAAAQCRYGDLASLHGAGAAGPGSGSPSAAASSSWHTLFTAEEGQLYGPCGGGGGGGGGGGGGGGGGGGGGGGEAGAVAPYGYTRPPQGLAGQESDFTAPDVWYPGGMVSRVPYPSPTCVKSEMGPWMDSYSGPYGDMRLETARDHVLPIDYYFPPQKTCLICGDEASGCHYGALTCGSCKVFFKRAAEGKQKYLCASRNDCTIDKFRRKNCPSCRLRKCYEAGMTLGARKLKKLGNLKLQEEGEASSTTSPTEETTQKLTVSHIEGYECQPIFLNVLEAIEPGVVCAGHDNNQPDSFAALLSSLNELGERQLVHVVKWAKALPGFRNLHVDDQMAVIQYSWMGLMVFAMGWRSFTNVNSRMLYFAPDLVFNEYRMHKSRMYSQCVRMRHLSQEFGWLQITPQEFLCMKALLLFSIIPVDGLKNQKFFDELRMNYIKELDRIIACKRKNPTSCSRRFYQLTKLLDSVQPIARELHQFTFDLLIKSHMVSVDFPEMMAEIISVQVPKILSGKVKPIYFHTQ
EXPERIMENTAL DETAILS: Competitive hAR binding assay with 3H-DHT tracer
CONDITION NOTES: baculovirus/Sf9 hAR extract, 1 nM 3H-DHT, one hour at 4° C; mean of multiple tests; read-out: AR Binding IC50
Entry rule: numbers only, all in nM.

// known answers, use as guide
N#CCCc1ccc(Oc2ccc(C#N)c(Cl)c2)cc1
304
COc1ccc(C)cc1Oc1ccc(C#N)c(Cl)c1
232
Cc1ccc(Oc2ccc(C#N)c(Cl)c2)c(Cc2ccccc2)c1
326
CCc1cccc(Oc2ccc(C#N)c(Cl)c2)c1
181
N#Cc1ccc(Oc2ccccc2OCc2ccccc2)cc1C(F)(F)F
361

Consider `CCSc1ccccc1Oc1ccc(C#N)cc1Cl` . Its measured IC50 is 281

Consider `C=CCc1cccc(C)c1Oc1ccc(C#N)cc1Cl` . Its measured IC50 is 242

Consider `CC(C)Oc1ccccc1Oc1ccc(C#N)c(C(F)(F)F)c1` . Its measured IC50 is 218

Consider `Cc1ccc(Oc2ccc(C#N)c(Cl)c2)c(C(C)(C)C)c1` . Its measured IC50 is 253

###

Quick reference: pIC50 of the listed items.
TESTED SYSTEM: hAR (human androgen receptor) (Homo sapiens, UniProt P10275)
Construct: made in house; host or cells: baculovirus/Sf9 insect cells (crude extract)
Sequence (P10275 1-920): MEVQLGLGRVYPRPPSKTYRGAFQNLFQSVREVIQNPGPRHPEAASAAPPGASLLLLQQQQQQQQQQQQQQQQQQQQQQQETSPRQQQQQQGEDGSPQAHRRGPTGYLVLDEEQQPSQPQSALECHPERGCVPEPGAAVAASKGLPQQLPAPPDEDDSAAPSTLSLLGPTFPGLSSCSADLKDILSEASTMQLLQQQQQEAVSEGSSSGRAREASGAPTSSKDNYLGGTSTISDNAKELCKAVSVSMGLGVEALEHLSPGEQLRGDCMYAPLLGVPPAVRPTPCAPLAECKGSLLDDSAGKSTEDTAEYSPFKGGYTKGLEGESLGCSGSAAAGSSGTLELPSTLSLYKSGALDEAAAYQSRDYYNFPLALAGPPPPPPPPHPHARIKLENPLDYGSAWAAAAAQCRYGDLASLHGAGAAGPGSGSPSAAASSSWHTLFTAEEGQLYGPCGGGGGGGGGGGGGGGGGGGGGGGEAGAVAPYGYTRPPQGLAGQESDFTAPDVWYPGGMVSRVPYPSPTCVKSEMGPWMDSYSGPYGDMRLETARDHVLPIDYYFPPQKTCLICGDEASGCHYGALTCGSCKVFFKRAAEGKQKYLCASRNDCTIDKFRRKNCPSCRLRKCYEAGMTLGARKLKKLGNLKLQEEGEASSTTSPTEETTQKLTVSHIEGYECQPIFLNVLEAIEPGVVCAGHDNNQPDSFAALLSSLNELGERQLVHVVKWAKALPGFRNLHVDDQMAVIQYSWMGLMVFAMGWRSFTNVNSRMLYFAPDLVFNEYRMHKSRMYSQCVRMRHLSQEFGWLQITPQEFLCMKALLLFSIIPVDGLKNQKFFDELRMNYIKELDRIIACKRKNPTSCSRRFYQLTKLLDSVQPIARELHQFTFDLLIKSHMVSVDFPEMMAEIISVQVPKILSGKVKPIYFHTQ
EXPERIMENTAL DETAILS: Competitive hAR binding assay with 3H-DHT tracer
CONDITION NOTES: baculovirus/Sf9 hAR extract, 1 nM 3H-DHT, one hour at 4° C; mean of multiple tests; read-out: AR Binding IC50
Remember, pIC50 is on a log scale: it is -log10 of the molar concentration.

// known answers, use as guide
CCC(C)c1ccccc1Oc1ccc(C#N)c(Cl)c1 (centres unmarked) [Example 48]
6.74
CCN(CC)C(=O)c1ccccc1Oc1ccc(C#N)cc1Cl [Example 18]
6.40
COc1cccc(Oc2ccc(C#N)c(Cl)c2)c1OC [Example 54]
6.80
CCN(CC)C(=O)c1ccccc1Oc1ccc(C#N)c(C(F)(F)F)c1 [Example 106]
6.76

Consider CCOC(=O)c1ccc(Oc2ccc(C#N)c(Cl)c2)c(OC)c1 [Example 55] . Its measured pIC50 is 6.52

###

TESTED SYSTEM: hAR (human androgen receptor) (Homo sapiens, UniProt P10275)
Construct: made in house; host or cells: baculovirus/Sf9 insect cells (crude extract)
Sequence (P10275 1-920): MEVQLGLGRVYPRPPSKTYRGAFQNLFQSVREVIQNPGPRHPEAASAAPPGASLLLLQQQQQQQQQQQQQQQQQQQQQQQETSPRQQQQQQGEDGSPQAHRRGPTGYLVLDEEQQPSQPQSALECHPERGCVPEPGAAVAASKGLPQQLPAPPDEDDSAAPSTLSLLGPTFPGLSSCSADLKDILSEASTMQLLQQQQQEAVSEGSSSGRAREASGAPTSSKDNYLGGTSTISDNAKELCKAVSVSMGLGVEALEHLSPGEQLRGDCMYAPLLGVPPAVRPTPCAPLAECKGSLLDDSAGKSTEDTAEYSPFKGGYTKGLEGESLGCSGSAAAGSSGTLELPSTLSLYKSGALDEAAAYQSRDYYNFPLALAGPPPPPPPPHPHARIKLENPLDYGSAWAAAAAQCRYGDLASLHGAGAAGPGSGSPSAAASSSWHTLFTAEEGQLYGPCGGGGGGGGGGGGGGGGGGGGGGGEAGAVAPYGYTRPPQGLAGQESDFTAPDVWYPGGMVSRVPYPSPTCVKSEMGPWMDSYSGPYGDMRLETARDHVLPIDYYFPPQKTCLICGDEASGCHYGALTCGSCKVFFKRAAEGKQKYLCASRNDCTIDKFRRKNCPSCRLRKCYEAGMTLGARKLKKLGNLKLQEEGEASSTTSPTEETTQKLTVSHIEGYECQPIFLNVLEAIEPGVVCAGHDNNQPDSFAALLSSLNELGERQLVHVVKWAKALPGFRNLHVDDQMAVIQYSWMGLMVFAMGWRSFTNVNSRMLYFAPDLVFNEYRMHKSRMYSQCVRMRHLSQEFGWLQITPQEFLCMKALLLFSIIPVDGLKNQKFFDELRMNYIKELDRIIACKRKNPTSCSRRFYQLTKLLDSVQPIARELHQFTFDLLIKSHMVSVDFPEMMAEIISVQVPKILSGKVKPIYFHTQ
EXPERIMENTAL DETAILS: Competitive hAR binding assay with 3H-DHT tracer
QUANTITY NAME: IC50 (nM)
Entry rule: numbers only, all in nM.

// known answers, use as guide
COc1ccccc1Oc1ccc(C#N)c(Cl)c1
2
Cc1ccc(F)c(Oc2ccc(C#N)c(C(F)(F)F)c2)c1F
76
N#Cc1ccc(Oc2cccc3c2CCCC3)cc1Cl
94
COc1cc(C)ccc1Oc1ccc(C#N)c(Cl)c1
4
Cc1cc(F)ccc1Oc1ccc(C#N)c(Cl)c1
48

Consider `N#Cc1ccc(Oc2cccc3ccccc23)cc1Cl` . Its measured IC50 is 31

Consider `N#Cc1ccc(Oc2ccccc2C#N)cc1Cl` . Its measured IC50 is 14

Consider `COc1ccccc1Oc1ccc(C#N)cc1Cl` . Its measured IC50 is 29

Consider `N#Cc1ccc(Oc2ccc(F)cc2F)cc1Cl` . Its measured IC50 is 52

Consider `Cc1ccc(C)c(Oc2ccc(C#N)c(Cl)c2)c1` . Its measured IC50 is 69

Consider `Cc1ccc(Oc2ccc(C#N)c(Cl)c2)c(C)c1` . Its measured IC50 is 25

Consider `N#Cc1ccc(Oc2ccc(F)cc2F)cc1C(F)(F)F` . Its measured IC50 is 128

Consider `CCOc1ccccc1Oc1ccc(C#N)c(Cl)c1` . Its measured IC50 is 19
